Consider the following compounds and their measured Cmax readings.
MEASUREMENT_PROTOCOL: oral pharmacokinetics (plasma, brain, CSF)
Assay type: in vivo, Sprague Dawley rats
TEST_PARAMETERS: Sprague-Dawley, rat, plasma, po, 10 mg/kg, per os 10 mg/kg, plasma, read-out: Cmax
Kindly format the answer as number then unit.

A selection of reference data follows.
>>> df
                                   compound       value
0  C[C@@H](O)[C@H](NC1CCC2(CC1)CNC2=O)C(N)=O (single isomer, unassigned)   625 ng/mL
1  CC1CCC2(CC1)CN(C(CCC(N)=O)C(N)=O)C2=O (single isomer, unassigned)  3020 ng/mL
2  CC1CCC2(CC1)CNC2=O (racemic) [Compound AD, 7-methyl-2-azaspiro[3.5]nonan-1-one]  2030 ng/mL
3  C[C@@H](O)[C@@H](C(N)=O)N1CC2(CCCCC2)C1=O  1230 ng/mL
4  C[C@@H](O)[C@@H](C(N)=O)N1CC2(CCC(F)(F)CC2)C1=O  7310 ng/mL

IN: Read off the recorded Cmax for O=C1NCC12CCCCC2 [Compound AB, 2-azaspiro[3.5]nonan-1-one]
OUT: 7690 ng/mL

IN: Read off the recorded Cmax for O=C1NCC12CCC(OCc1ccccc1)CC2 (single isomer, unassigned) [AI, 7-(benzyloxy)-2-azaspiro[3.5]nonan-1-one]
OUT: 3970 ng/mL

IN: Read off the recorded Cmax for CC1CCC2(CC1)CN(CC(N)=O)C2=O (centres unmarked)
OUT: 869 ng/mL

====

Consider the following compounds and their measured AUC(0-t) readings.
MEASUREMENT_PROTOCOL: IV pharmacokinetics
Type: in vivo, Sprague Dawley rats
TEST_PARAMETERS: Sprague-Dawley, rat, in vivo, iv, 2 mg/kg, normal saline (* in 5% NMP, 5% Solutol HS, 90% normal saline)
Form entry: value (ng·h/mL) — number only.

A selection of reference data follows.
                                   compound  value
0  CC1CCC2(CC1)CN(C(CCC(N)=O)C(N)=O)C2=O (single isomer, unassigned)    973
1  O=C1NCC12CCC(OCc1ccccc1)CC2 (single isomer, unassigned) [AI, 7-(benzyloxy)-2-azaspiro[3.5]nonan-1-one]   1260
2  CC1CCC2(CC1)CN([C@H](C(N)=O)[C@@H](C)O)C2=O (mixture of isomers)   1470

IN: Read off the recorded AUC(0-t) for CC1CCC2(CC1)CN(CC(N)=O)C2=O (stereo not shown)
OUT: 233

====

EXPERIMENTAL_TARGET: NMDAR2A (Homo sapiens, UniProt Q12879)
Construct: expressed in transfected cells; host or cells: HEK cells (membrane extract)
Sequence (Q12879 23-1464, species assumed, other chains not shown): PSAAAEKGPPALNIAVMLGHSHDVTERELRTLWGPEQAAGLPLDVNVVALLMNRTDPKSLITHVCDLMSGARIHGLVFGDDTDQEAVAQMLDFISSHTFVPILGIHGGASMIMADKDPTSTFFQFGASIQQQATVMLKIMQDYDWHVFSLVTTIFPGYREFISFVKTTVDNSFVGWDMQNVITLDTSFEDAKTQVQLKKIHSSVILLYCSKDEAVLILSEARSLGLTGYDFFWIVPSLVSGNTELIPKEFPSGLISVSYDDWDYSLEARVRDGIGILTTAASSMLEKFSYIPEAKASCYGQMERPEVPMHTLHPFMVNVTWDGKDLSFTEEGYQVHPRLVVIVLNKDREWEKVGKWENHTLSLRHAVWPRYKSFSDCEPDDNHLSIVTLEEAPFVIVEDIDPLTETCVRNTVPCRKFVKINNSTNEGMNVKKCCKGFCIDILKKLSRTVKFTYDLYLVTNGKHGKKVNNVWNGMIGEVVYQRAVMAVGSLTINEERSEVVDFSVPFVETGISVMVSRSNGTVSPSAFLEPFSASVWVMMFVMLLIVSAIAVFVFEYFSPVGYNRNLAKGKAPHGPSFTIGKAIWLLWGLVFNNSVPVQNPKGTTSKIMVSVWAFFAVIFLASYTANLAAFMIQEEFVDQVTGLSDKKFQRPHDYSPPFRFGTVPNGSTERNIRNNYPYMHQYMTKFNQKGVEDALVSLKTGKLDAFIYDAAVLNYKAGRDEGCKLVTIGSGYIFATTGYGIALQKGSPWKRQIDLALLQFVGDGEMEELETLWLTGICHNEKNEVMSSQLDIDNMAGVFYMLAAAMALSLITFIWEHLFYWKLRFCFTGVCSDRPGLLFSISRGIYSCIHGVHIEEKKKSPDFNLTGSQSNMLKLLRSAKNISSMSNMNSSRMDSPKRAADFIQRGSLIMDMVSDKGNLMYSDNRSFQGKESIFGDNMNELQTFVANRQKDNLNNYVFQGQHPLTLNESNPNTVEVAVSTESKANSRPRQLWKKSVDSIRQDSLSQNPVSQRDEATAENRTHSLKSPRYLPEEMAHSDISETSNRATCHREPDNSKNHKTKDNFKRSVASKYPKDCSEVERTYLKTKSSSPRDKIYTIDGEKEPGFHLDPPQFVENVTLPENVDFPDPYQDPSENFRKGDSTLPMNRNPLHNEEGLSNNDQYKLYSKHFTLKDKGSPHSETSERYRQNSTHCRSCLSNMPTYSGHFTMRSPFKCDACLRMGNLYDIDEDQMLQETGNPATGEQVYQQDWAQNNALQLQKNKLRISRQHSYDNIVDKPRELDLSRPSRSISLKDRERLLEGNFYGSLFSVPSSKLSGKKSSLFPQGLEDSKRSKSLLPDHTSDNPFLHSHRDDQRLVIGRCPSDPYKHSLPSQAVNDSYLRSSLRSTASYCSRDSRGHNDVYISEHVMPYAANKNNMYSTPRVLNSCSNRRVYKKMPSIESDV
MEASUREMENT_PROTOCOL: [3H]MK-801 binding in NMDAR expressing HEK cell membranes (facilitation of NMDAR activation)
Format: biochemical
TEST_PARAMETERS: 50 μM glutamate, read-out: B: log EC50 (converted)
Consider the following molecules and their measured EC50 readings.

A selection of reference data follows.
>>> print(df.to_string())
                                   molecule   value
0  CC1CCC2(CC1)CN(C(CCC(N)=O)C(N)=O)C2=O (single isomer, unassigned)  < 1 nM
1  CC1CCC2(CC1)CN(C(CO)C(=O)O)C2=O (single isomer, unassigned) [EM]  < 1 nM

Next item in the queue.
IN: Give NMDAR2A (Homo sapiens, UniProt Q12879) EC50 for the following molecule: C[C@@H](O)[C@H](NC1CCC2(CC1)CNC2=O)C(N)=O (single isomer, unassigned) [AQ]
OUT: ≥ 1 nM

====

Consider the following compounds and their measured % analgesia readings.
System: Sprague Dawley rats
MEASUREMENT_PROTOCOL: Bennett model of mechanical analgesia (sciatic nerve chronic constriction, paw withdrawal threshold);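 note: log paw withdrawal threshold scaled from vehicle group mean (0%) to naive 15 g value (100%)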
Format: in vivo, rat
TEST_PARAMETERS: 0.1 mg/kg PO, 1 h
Kindly format the answer as number then unit.

A selection of reference data follows.
In [3]: df
Out[3]:
                                   compound  value
0  CC1CCC2(CC1)CNC2=O (racemic) [Compound AD, 7-methyl-2-azaspiro[3.5]nonan-1-one]  18.4%
1  O=C1NCC12CCC(OCc1ccccc1)CC2 (single isomer, unassigned) [AI, 7-(benzyloxy)-2-azaspiro[3.5]nonan-1-one]   5.3%
2  O=C1NCC12CCC(O)CC2 (stereo not shown) [AL, 7-hydroxy-2-azaspiro[3.5]nonan-1-one]  20.9%

IN: Read off the recorded % analgesia for COc1ccc(CN2CC3(CCC(O)CC3)C2=O)cc1 (stereo not shown)
OUT: 26.7%

====

Consider the following molecules and their measured log10(half-life) readings.
MEASUREMENT_PROTOCOL: IV pharmacokinetics
Format: in vivo, Sprague Dawley rats
TEST_PARAMETERS: Sprague-Dawley, rat, in vivo, iv, 2 mg/kg, normal saline (* in 5% NMP, 5% Solutol HS, 90% normal saline)
Recorded half-life (log10, h)

A selection of reference data follows.
>>> df
                                   molecule      measure_name  value
0  NC(=O)C(CO)N1CC2(CCCCC2)C1=O (single isomer, unassigned)  log10(half-life)   0.38
1  O=C1NCC12CCC(O)CC2 (centres unmarked) [AL, 7-hydroxy-2-azaspiro[3.5]nonan-1-one]  log10(half-life)   0.57
2  CC1CCC2(CC1)CN(CC(N)=O)C2=O (centres unmarked)  log10(half-life)  -0.66
3  C[C@@H](O)[C@H](NC1CCC2(CC1)CNC2=O)C(N)=O (single isomer, unassigned)  log10(half-life)   0.58

IN: Read off the recorded log10(half-life) for CC1CCC2(CC1)CN(C(CCC(N)=O)C(N)=O)C2=O (single isomer, unassigned)
OUT: 0.18

IN: Read off the recorded log10(half-life) for CC1CCC2(CC1)CN([C@H](C(N)=O)[C@@H](C)O)C2=O (mixture of isomers)
OUT: -0.49

IN: Read off the recorded log10(half-life) for O=C1NCC12CCC(OCc1ccccc1)CC2 (single isomer, unassigned) [AI, 7-(benzyloxy)-2-azaspiro[3.5]nonan-1-one]
OUT: 0.14

IN: Read off the recorded log10(half-life) for `C[C@@H](O)[C@@H](C(N)=O)N1CC2(CCCCC2)C1=O`
OUT: -0.23

IN: Read off the recorded log10(half-life) for CC1CCC2(CC1)CN(C(CO)C(=O)O)C2=O (single isomer, unassigned)
OUT: 0.87

IN: Read off the recorded log10(half-life) for O=C1NCC12CCCCC2 [Compound AB, 2-azaspiro[3.5]nonan-1-one]
OUT: 0.53

IN: Read off the recorded log10(half-life) for CC1CCC2(CC1)CNC2=O (racemic) [Compound AD, 7-methyl-2-azaspiro[3.5]nonan-1-one]
OUT: -0.10

====

MEASUREMENT_PROTOCOL: IV pharmacokinetics
Type: in vivo, Sprague Dawley rats
TEST_PARAMETERS: Sprague-Dawley, in vivo; rat, intravenous 2 mg/kg, normal saline (* in 5% NMP, 5% Solutol HS, 90% normal saline)
Text: The table below summarizes the results of the IV pharmacokinetics.
MEASURE_NAME: half-life (min)
Form entry: value (min) — number only.

A selection of reference data follows.
In [3]: df
Out[3]:
                                   compound  scale_unit  value
0  CCN(Cc1ccccc1)C1CCC2(CC1)CNC2=O (stereo not shown)         min     45
1  O=C1NCC12CCC(NCc1ccccc1)CC2 (stereo not shown)         min   70.8
2  COc1ccc(CN2CC3(CCC(O)CC3)C2=O)cc1 (stereo not shown)         min     24

Next item in the queue.
IN: Read off the recorded half-life for CN(Cc1ccccc1)C1CCC2(CC1)CNC2=O (stereo not shown)
OUT: 33.6

====

MEASUREMENT_PROTOCOL: IV pharmacokinetics
Type: in vivo, Sprague Dawley rats
TEST_PARAMETERS: Sprague-Dawley, in vivo; rat, intravenous 2 mg/kg, normal saline (* in 5% NMP, 5% Solutol HS, 90% normal saline); read-out: C0
Consider the following compounds and their measured C0 readings.
Kindly format the answer as number then unit.

A selection of reference data follows.
>>> print(df.to_string())
                                   compound       value
0  CCN(Cc1ccccc1)C1CCC2(CC1)CNC2=O (stereo not shown)   981 ng/mL
1  O=C1NCC12CCC(NCc1ccccc1)CC2 (stereo not shown)  1340 ng/mL
2  CN(Cc1ccccc1)C1CCC2(CC1)CNC2=O (stereo not shown)  2100 ng/mL

Next item in the queue.
IN: Read off the recorded C0 for COc1ccc(CN2CC3(CCC(O)CC3)C2=O)cc1 (stereo not shown)
OUT: 2650 ng/mL
